All figures here come from paper PMC2746433.

Target: T1, E. coli Exonuclease I (E. coli, UniProt P04995 1-475)
T1 sequence (looked up): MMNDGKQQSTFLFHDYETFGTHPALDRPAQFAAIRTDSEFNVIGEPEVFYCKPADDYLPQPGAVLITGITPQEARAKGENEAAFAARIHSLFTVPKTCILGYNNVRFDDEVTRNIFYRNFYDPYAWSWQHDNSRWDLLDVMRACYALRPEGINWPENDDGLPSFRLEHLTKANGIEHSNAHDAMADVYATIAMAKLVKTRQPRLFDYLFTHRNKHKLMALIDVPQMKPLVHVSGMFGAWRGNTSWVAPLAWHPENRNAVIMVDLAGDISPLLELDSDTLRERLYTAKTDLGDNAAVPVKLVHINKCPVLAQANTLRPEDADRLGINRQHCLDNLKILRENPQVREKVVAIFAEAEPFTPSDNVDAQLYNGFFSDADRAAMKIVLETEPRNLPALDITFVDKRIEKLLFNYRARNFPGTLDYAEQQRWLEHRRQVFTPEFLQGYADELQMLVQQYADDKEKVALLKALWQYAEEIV
Experiment: fluorescence polarisation
No end group written: not given here. fluorescein = fluorescein (label on the N-terminus)
quantity.measured: Kd

So what's the measured Kd for this one? fluorescein-WMDFDDDIPF [F-SSB-Ct (SSB-Ct with an N-terminal fluorescein)]
261 nM
